- systemName: SHP2-C SH2;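 further: peptide library displayed on the E. coli surface as eCPX fusions, selected cells deep-sequenced, score is each peptide's frequency after selection divided by its frequency in the input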
- runDescription: SH2 binding enrichment of the phosphorylated peptide, bacterial display (enrichment ratio); higher = better substrate or ligand; peptides without Tyr show the background
Label condition met when SH2 binding enrichment is at or above 0.8; otherwise label condition not met.

Decide: is the reported value of SH2 binding enrichment for RIDPDYVGRVR [IGSF9_Y81] equal to or greater than 0.8?
condition not met

Decide: is the reported value of SH2 binding enrichment for GFQPEYGQPAG [SYP_Y278_D277E_YF] equal to or greater than 0.8?
condition met

Decide: is the reported value of SH2 binding enrichment for RNDRVYQPLRD [CD3D_Y149_Q147R] equal to or greater than 0.8?
condition not met

Decide: is the reported value of SH2 binding enrichment for LSPPVYLTNEW [NRK_Y885_I880L] equal to or greater than 0.8?
condition not met

Decide: is the reported value of SH2 binding enrichment for LWPIWYSCHRP [MRGPRX1_Y130_R131S] equal to or greater than 0.8?
condition not met

Decide: is the reported value of SH2 binding enrichment for IVAREYFSDAD [CAMK2A_Y106_E109D_YF] equal to or greater than 0.8?
condition not met

Decide: is the reported value of SH2 binding enrichment for CLEKEYFDQHF [NPC1_Y394_R389C] equal to or greater than 0.8?
condition not met

Decide: is the reported value of SH2 binding enrichment for QFPDVYAREEV [CRX_Y67_YF] equal to or greater than 0.8?
condition not met

Decide: is the reported value of SH2 binding enrichment for EVVGKYSVHNA [MLH1_Y183_R182K] equal to or greater than 0.8?
condition met

Decide: is the reported value of SH2 binding enrichment for RLLCEYQELMN [KRT75_Y434_R432C] equal to or greater than 0.8?
condition not met

Decide: is the reported value of SH2 binding enrichment for DFPGIYSGYDD [POLR1C_Y33_N32I] equal to or greater than 0.8?
condition met

Decide: is the reported value of SH2 binding enrichment for MKKMHYVDPDH [ST3GAL5_Y99] equal to or greater than 0.8?
condition not met

Decide: is the reported value of SH2 binding enrichment for HLGNQYVNVMN [SLC3A1_Y461_R456H] equal to or greater than 0.8?
condition met

Decide: is the reported value of SH2 binding enrichment for WAMLAYNRSKL [WWOX_Y293] equal to or greater than 0.8?
condition met

Decide: is the reported value of SH2 binding enrichment for LASSEYPVRRR [GALK1_Y236] equal to or greater than 0.8?
condition not met

Decide: is the reported value of SH2 binding enrichment for TMKSHYMELFD [BBS2_Y644_R643H_YF] equal to or greater than 0.8?
condition met

Decide: is the reported value of SH2 binding enrichment for FQKNVYSEELR [LMNA_Y211_I210V] equal to or greater than 0.8?
condition not met

Decide: is the reported value of SH2 binding enrichment for SPPPAFTPMSG [ERBB4_Y1056_Y1056F] equal to or greater than 0.8?
condition not met

Decide: is the reported value of SH2 binding enrichment for QMRLRYLAAEE [CEP120_Y884] equal to or greater than 0.8?
condition met

Decide: is the reported value of SH2 binding enrichment for HGVSSYDTIIS [LDLR_Y465_V468I] equal to or greater than 0.8?
condition not met

Decide: is the reported value of SH2 binding enrichment for RKLVDYDSARH [BIN1_Y150] equal to or greater than 0.8?
condition not met

Decide: is the reported value of SH2 binding enrichment for DEWFLYKMRDI [CPS1_Y879_K875E] equal to or greater than 0.8?
condition met

Decide: is the reported value of SH2 binding enrichment for PTTKTYFLHFD [HBA1_Y43_P45L] equal to or greater than 0.8?
condition met

Decide: is the reported value of SH2 binding enrichment for YLQEIHNSNNQ [FGG_Y140_Y140H] equal to or greater than 0.8?
condition met

Decide: is the reported value of SH2 binding enrichment for SMVVPYEPPEV [TP53_Y220_V216M] equal to or greater than 0.8?
condition not met

Decide: is the reported value of SH2 binding enrichment for LNNIIYRVERA [CUX2_Y1470] equal to or greater than 0.8?
condition met

Decide: is the reported value of SH2 binding enrichment for DGMADYSDPSY [CDC5L_Y459] equal to or greater than 0.8?
condition not met

Decide: is the reported value of SH2 binding enrichment for LEAVSYSSRYA [RNLS_Y190] equal to or greater than 0.8?
condition not met

Decide: is the reported value of SH2 binding enrichment for LVTCSYLLGNS [LMNA_Y646_R644C] equal to or greater than 0.8?
condition not met

Decide: is the reported value of SH2 binding enrichment for YGPPQYNMQYS [ERBB2IP_Y977_I979M] equal to or greater than 0.8?
condition not met

Decide: is the reported value of SH2 binding enrichment for DVCKNYAKAKD [ALB_Y343_E345K] equal to or greater than 0.8?
condition met

Decide: is the reported value of SH2 binding enrichment for FIGCIYLFLTK [GARS1_Y414_R412C_YF] equal to or greater than 0.8?
condition met

Decide: is the reported value of SH2 binding enrichment for LYEDRYLLGPS [ASS1_Y87_T91P] equal to or greater than 0.8?
condition not met

Decide: is the reported value of SH2 binding enrichment for PFRKLYESVKK [MKI67_Y241_W238R] equal to or greater than 0.8?
condition not met

Decide: is the reported value of SH2 binding enrichment for GPIEVYLCPEE [E2F3_Y349] equal to or greater than 0.8?
condition not met

Decide: is the reported value of SH2 binding enrichment for IGHGSYAKVLL [PRKCZ_Y263_R260H] equal to or greater than 0.8?
condition met

Decide: is the reported value of SH2 binding enrichment for DAPVVYLGSFG [PRAG1_Y132_R137G] equal to or greater than 0.8?
condition met

Decide: is the reported value of SH2 binding enrichment for SPFAVYRFFTF [RPGRIP1_Y826_YF] equal to or greater than 0.8?
condition not met

Decide: is the reported value of SH2 binding enrichment for LHQSTYQCFDV [SLC7A14_Y693_R695C_YF] equal to or greater than 0.8?
condition not met

Decide: is the reported value of SH2 binding enrichment for VGSEDYGRDLT [SPTAN1_Y1792] equal to or greater than 0.8?
condition not met

Decide: is the reported value of SH2 binding enrichment for ATPKGYETDAS [OTC_Y223_P225T] equal to or greater than 0.8?
condition not met

Decide: is the reported value of SH2 binding enrichment for KPLMPCMRFSR [SMARCE1_Y73_Y73C_YF] equal to or greater than 0.8?
condition met

Decide: is the reported value of SH2 binding enrichment for LHSEAYLKYNE [PBRM1_Y1610_I1614N] equal to or greater than 0.8?
condition met

Decide: is the reported value of SH2 binding enrichment for TLRETYGEMAD [ALB_Y108] equal to or greater than 0.8?
condition not met

Decide: is the reported value of SH2 binding enrichment for LLKMMYLMLDN [STAT1_Y203_K201M] equal to or greater than 0.8?
condition met

Decide: is the reported value of SH2 binding enrichment for MALDRYVAICK [OR2B11_Y127] equal to or greater than 0.8?
condition met

Decide: is the reported value of SH2 binding enrichment for KQLYAYKMLMA [TMC2_Y209] equal to or greater than 0.8?
condition met

Decide: is the reported value of SH2 binding enrichment for VNFGAYINDFK [GLB1_Y488_YF] equal to or greater than 0.8?
condition not met

Decide: is the reported value of SH2 binding enrichment for YENGEYIIRQG [PRKG1_Y247] equal to or greater than 0.8?
condition met

Decide: is the reported value of SH2 binding enrichment for VEGISYDFIPT [CBS_Y308_G307S] equal to or greater than 0.8?
condition not met

Decide: is the reported value of SH2 binding enrichment for RLPSGYGLAFR [DLK1_Y262_YF] equal to or greater than 0.8?
condition met

Decide: is the reported value of SH2 binding enrichment for EADRKYEEVAC [TPM3_Y163_R168C] equal to or greater than 0.8?
condition met

Decide: is the reported value of SH2 binding enrichment for SLIERYEPSET [PLCD1_Y258] equal to or greater than 0.8?
condition not met

Decide: is the reported value of SH2 binding enrichment for QFFQSYFNNNF [ZNF236_Y644] equal to or greater than 0.8?
condition met

###

- Test system: Fer (mouse);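 further: 11-residue human phosphosite peptides and single-mutation variants displayed on the E. coli surface, counted by deep sequencing, each peptide's frequency after selection divided by its frequency in the unselected input library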;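 further: frequency after pTyr selection over input frequency; kinase dosed for 20-30% of maximal phosphorylation in three min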
- runDescription: phosphorylation enrichment, bacterial display (enrichment ratio); higher = better substrate or ligand; peptides without Tyr show the background
observedProperty: phosphorylation enrichment
Respond with the number and no other words.

Lab note: measured phosphorylation enrichment of KVKPIYFHTRG [AR_Y916_Q920R] was 0.416

Lab note: measured phosphorylation enrichment of RLGNQYVNVMN [SLC3A1_Y461] was 0.513

Lab note: measured phosphorylation enrichment of RLLRGYNQSAF [HLA-C_Y137_D138N_YF] was 0.268

Lab note: measured phosphorylation enrichment of EPSVPYRGMVF [GLI3_Y104_T107M] was 0.38

Lab note: measured phosphorylation enrichment of RHFTTYDTNGR [CLCA1_Y665_Y661H] was 0.594

Lab note: measured phosphorylation enrichment of IDGLEYLHSQG [STK11_Y166] was 0.426

Lab note: measured phosphorylation enrichment of TGQEEYSAMRD [KRAS_Y64_A59T] was 0.462

Lab note: measured phosphorylation enrichment of HYGNNYRDVLQ [MACC1_Y803] was 0.565

Lab note: measured phosphorylation enrichment of DRFDNYIEKVR [DES_Y122_A120D] was 0.408

Lab note: measured phosphorylation enrichment of EQPNPYMVLDI [ROCK2_Y1197_S1194P] was 2.87

Lab note: measured phosphorylation enrichment of AIMSFYATLID [RYR1_Y2426_A2428T] was 0.791

Lab note: measured phosphorylation enrichment of ASPALYRLDLD [TRIL_Y352] was 0.484

Lab note: measured phosphorylation enrichment of QFFQSYFNNNF [ZNF236_Y644] was 0.37

Lab note: measured phosphorylation enrichment of IMAYFYMCDRA [CASD1_Y382] was 0.614
